Molecular target: His-His-USP7 (aa208-560, |C315A|) (Homo sapiens, UniProt Q93009, C315A)
Construct: His-His-USP7 (aa208-560, |C315A|); His-His (N)
Sequence (Q93009 208-560 C315A): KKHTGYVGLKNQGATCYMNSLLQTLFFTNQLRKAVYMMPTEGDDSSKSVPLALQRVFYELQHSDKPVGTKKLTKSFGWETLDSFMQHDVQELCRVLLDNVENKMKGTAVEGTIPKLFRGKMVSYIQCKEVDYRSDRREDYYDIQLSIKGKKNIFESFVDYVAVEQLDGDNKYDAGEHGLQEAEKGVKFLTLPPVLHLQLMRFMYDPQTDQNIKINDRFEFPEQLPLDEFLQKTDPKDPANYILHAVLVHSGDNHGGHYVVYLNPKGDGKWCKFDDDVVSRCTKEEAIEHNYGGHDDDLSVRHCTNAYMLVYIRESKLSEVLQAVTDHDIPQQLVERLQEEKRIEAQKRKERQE
Test: Evaluation of the inhibition of USP7 by the Fluorescence Intensity (FLINT) readings
Format: biochemical
Details: 0.25 nM His-His-USP7, compound incubated 60 minutes at 30° C., 500 nM Ubiquitin-Rhodamine-110 substrate; 50% reduction in kinetic rate
assay metric: IC50 (nM)
I only need the number, in nM, no unit after it.

Cc1ccc(C#C[C@@]2(F)CC[C@@H](C(=O)N3CC[C@](O)(Cn4cnc(Oc5ccc(F)cc5)c(N)c4=O)C(F)(F)C3)[C@H](c3ccccc3)C2)nn1 [Example 162] = 10
Nc1c(Oc2ccc(F)cc2)ncn(CC2(O)CCN(C(=O)[C@@H]3CC[C@@](O)(Cc4ccc(F)cc4)C[C@H]3c3ccccc3)CC2)c1=O (relative stereo) [Example 100] = 244
CO[C@@H]1CC[C@@](C#Cc2cc(C)cnn2)(C(=O)N2CC[C@](O)(Cn3cnc(Oc4ccc(F)cc4)c(N)c3=O)C(F)(F)C2)[C@@H](c2ccccc2)C1 [Example 169] = 8.8
C#C[C@@]1(O)CC[C@@H](C(=O)N2CCC(O)(Cn3cnc(Oc4ccc(F)cc4)c(N)c3=O)CC2)[C@H](c2ccccc2)C1 (relative stereo) [Example 91] = 289

The record that follows has no IC50 shown yet.
IC50 lookup needed for Nc1c(Oc2ccc3c(c2)CCNC3)ncn(CC2(O)CCN(C(=O)[C@@H]3CCC(F)(F)C[C@H]3c3ccccc3)CC2)c1=O [Example 31] , thanks.
47
